ASSAY_OVERVIEW: Mouse pharmacokinetic study of oral GE with and without ketoconazole, plasma with and without β-glucuronidase treatment
Format: in vivo, male mice (C57BL6J)
CONDITION_SUMMARY: GE administered group, mouse plasma; 0.25 h
METRIC: Concentration Ratio (Total/Free) of GE Phenolics

CCCCCCCC(O)CC(=O)CCc1ccc(O)c(OC)c1 (stereo not shown) | 653

(1) CCCCCCCCCC(O)CC(=O)CCc1ccc(O)c(OC)c1 (stereo not shown) [10G, 10-gingerol]
(2) CCCCC/C=C/C(=O)CCc1ccc(O)c(OC)c1
Field: entry with larger Concentration Ratio (Total/Free) of GE Phenolics (options 1 / 2 ). Mark your selection by writing its label. 1
